EXPERIMENT SUMMARY: qHTS for Hypoxia signaling pathway (HIF-1) antagonists against the NCATS CANVASS Library (AID 1347374); further: nearly all actives have a fitted effect of over 60% in size; further: potency means the concentration at half of the fitted maximal effect
SETTINGS: HRE-bla ME-180 cells, HIF-1 beta-lactamase reporter, CoCl2; series mostly up to 38.3 µM
Records with an inconclusive call do not appear. Activity calls are given as the source filed them. The call rests on the fitted dose curve; in most records, active means well fitted inhibition curve with a large enough effect; inconclusive means small, poorly fitted or top-dose-only effect; inactive means no such curve, though single readings can be large or run the other way.
PARAMETER MEASURED: Potency

Study these solved cases before continuing.
[
  {
    "MOLECULE": "C=C1C(=O)O[C@H]2[C@H]1CC/C(CO)=C\\CC[C@@]1(C)O[C@@H]21",
    "Potency": "4.72 µM (active)"
  },
  {
    "MOLECULE": "C/C=C1/CC[C@@H]2c3[nH]c4ccccc4c3CCN2C1",
    "Potency": "inactive"
  },
  {
    "MOLECULE": "O=C(O)CC1OCc2c(O)cccc21 (stereo unspecified)",
    "Potency": "inactive"
  },
  {
    "MOLECULE": "CN1C(=O)C2C(N=CN2C)N(C)C1=O (stereo unspecified)",
    "Potency": "inactive"
  },
  {
    "MOLECULE": "Oc1ccc(C2c3c(O)cc(O)cc3[C@@H]3C(c4ccc(O)cc4)c4c(O)cc(O)cc4[C@H]23)cc1 (stereo partly specified)",
    "Potency": "inactive"
  }
]

*Q* Quickly give me recorded Potency for `COc1ccc(CCCc2cc(O)c(OC)c(O)c2)c(O)c1O`
*A* inactive

---

EXPERIMENT SUMMARY: qHTS for Hypoxia signaling pathway (HIF-1) antagonists against the NCATS CANVASS Library (AID 1347374); further: nearly all actives have a fitted effect of over 60% in size
SETTINGS: HRE-bla ME-180 cells, HIF-1 beta-lactamase reporter, CoCl2; series mostly up to 38.3 µM
Inconclusive results are not listed. Activity calls are given as the source filed them. The call rests on the fitted dose curve; in most records, active means well fitted inhibition curve with a large enough effect; inconclusive means small, poorly fitted or top-dose-only effect; inactive means no such curve, though single readings can be large or run the other way.
Mark one answer only. Choices: active, inactive

Observe how each entry below is paired with its result.
[
  {
    "MOLECULE": "C/C1=C/[C@@H](C)[C@H](O)C/C=C/CC/C=C/C(=O)O[C@@H]1[C@H](C)C(=O)/C=C/CC1CC(=O)NC(=O)C1",
    "CATEGORY": "active"
  },
  {
    "MOLECULE": "C=C(NC(=O)c1csc(-c2nc3c(cc2O)-c2nc(cs2)C(=O)NC(C(C)O)C(=O)N/C(=C(\\C)O)c2nc(cs2)C(=O)NC2c4nc(cs4)C(=O)NC(COC(=O)c4c5c6c(cccc6n4O)COC(=O)[C@@H](OC4C[C@](C)(O)[C@H](N(C)C)[C@H](C)O4)C2OC5)c2nc-3cs2)n1)C(N)=O (stereo partly drawn)",
    "CATEGORY": "inactive"
  }
]

Here is another molecule to look at.
*Q* How was `CC[C@@H]1C[C@@]2(CC)OC(=O)[C@@]3(CC)OC(=O)[C@@H]1[C@@H]23` classified in this test?
*A* inactive

---

EXPERIMENT SUMMARY: qHTS Assay for Lipid Storage Modulators (AID 1519)
SETTINGS: Drosophila S3 cells, BODIPY lipid droplet/cell ratio, laser cytometry; measured here: cell count channel max response; cells loaded with oleic acid
Protocol: NIH Molecular Libraries Probe Production Centers Network [MLPCN] NIH Chemical Genomics Center [NCGC] Assay Submitter (PI): Beller, Mathias; Max-Planck-Institut fur Biophysikalische Chemie […] We dispensed 4 uL of cells at 1.25 x 10^6 cells/mL into LoBase Aurora COC 1,536-well plates (black walled, clear bottom) with a bottle-valve solenoid-based dispenser (Aurora) to obtain 5,000 cells/well. […] The ratio of the total intensity in PMT channel 1 over total intensity of channel 3 was also calculated. […]
Results filed as inconclusive are left out.
Would you mind telling me the reported max response of each entry?
Numbers only, in %.

Study these solved cases before continuing.
[
  {
    "COMPOUND": "N[C@]1(C(=O)O)CCc2cc(P(=O)(O)O)ccc21",
    "RESULT": -7.84
  },
  {
    "COMPOUND": "NC(N)=NCCC[C@@H](N)C(=O)O",
    "RESULT": -17.8
  },
  {
    "COMPOUND": "Cc1cccc(C)c1NC(=O)C[N+](C)(C)C",
    "RESULT": -10.6
  },
  {
    "COMPOUND": "N[C@@H](Cn1cc(F)c(=O)[nH]c1=O)C(=O)O",
    "RESULT": 17.5
  },
  {
    "COMPOUND": "Cc1cc([C@](C)(N)C(=O)O)ccc1P(=O)(O)O",
    "RESULT": 16.7
  },
  {
    "COMPOUND": "O=C(OCCN1CCCCC1)c1c[nH]c2ccccc12",
    "RESULT": -19.5
  },
  {
    "COMPOUND": "NC1(C(=O)O)C[C@H](C(=O)O)[C@H](C(=O)O)C1 (stereo partly specified)",
    "RESULT": 12.8
  },
  {
    "COMPOUND": "N#C/C(=C\\c1ccc(O)c(O)c1)C(N)=O",
    "RESULT": 26.3
  }
]

Give one value of max response per listed compound.
1. O=C(O)[C@H]1CCCNC1
2. C[C@H](N=C(NC#N)Nc1ccncc1)C(C)(C)C

*A*
1. -0.0867
2. 1.19

*Q* Quickly give me recorded max response for CC1O[C@@H](O[C@@H]2C(O)C[C@H](O[C@@H]3C(O)C[C@@H](OC4CC[C@@]5(C)C6CC(O)[C@@]7(C)C(C8=CC(=O)OC8)CC[C@@]7(O)C6CC[C@@H]5C4)OC3C)OC2C)CC(O)[C@H]1O (stereo partly specified)
*A* 11.2
